Entries and their AUC(0-inf) values follow.
assay: Pharmacokinetic test in rats, intravenous injection; assay type: in vivo, SD rats; conditions: male, SD, rat, plasma, iv, 2 mg/kg, rats, iv 2 mg/kg, XX n = 4, YY n = 3; read-out: AUC0-∞, Mean ± SD
The answer consists of two parts: a number and, after it, its unit.

Determine from records and report AUC(0-inf) for Cc1ccc(Sc2ccccc2N2CCNCC2)c(C)c1 654 ng·h/mL

Determine from records and report AUC(0-inf) for [2H]C([2H])([2H])c1ccc(Sc2ccccc2N2CCNCC2)c(C([2H])([2H])[2H])c1 482 ng·h/mL

----------
test: Pharmacokinetic test in rats, gavage administration; assay type: in vivo, SD rats; conditions: both sexes, SD, rat, plasma, po, 20 mg/kg, rats, oral 20 mg/kg, individual rats 1-6; read-out: Cmax
Assay Endpoint: Cmax (ng/mL)
Please give a number only; it is taken to be in ng/mL.

Determine from records and report Cmax for [2H]C([2H])([2H])c1ccc(Sc2ccccc2N2CCNCC2)c(C([2H])([2H])[2H])c1 [XX] 78.6
